Measured IC50 of individual entries
- TESTED SYSTEM: Receptor-type tyrosine-protein kinase FLT3 (Homo sapiens, UniProt P36888)
- Sequence (P36888 whole entry): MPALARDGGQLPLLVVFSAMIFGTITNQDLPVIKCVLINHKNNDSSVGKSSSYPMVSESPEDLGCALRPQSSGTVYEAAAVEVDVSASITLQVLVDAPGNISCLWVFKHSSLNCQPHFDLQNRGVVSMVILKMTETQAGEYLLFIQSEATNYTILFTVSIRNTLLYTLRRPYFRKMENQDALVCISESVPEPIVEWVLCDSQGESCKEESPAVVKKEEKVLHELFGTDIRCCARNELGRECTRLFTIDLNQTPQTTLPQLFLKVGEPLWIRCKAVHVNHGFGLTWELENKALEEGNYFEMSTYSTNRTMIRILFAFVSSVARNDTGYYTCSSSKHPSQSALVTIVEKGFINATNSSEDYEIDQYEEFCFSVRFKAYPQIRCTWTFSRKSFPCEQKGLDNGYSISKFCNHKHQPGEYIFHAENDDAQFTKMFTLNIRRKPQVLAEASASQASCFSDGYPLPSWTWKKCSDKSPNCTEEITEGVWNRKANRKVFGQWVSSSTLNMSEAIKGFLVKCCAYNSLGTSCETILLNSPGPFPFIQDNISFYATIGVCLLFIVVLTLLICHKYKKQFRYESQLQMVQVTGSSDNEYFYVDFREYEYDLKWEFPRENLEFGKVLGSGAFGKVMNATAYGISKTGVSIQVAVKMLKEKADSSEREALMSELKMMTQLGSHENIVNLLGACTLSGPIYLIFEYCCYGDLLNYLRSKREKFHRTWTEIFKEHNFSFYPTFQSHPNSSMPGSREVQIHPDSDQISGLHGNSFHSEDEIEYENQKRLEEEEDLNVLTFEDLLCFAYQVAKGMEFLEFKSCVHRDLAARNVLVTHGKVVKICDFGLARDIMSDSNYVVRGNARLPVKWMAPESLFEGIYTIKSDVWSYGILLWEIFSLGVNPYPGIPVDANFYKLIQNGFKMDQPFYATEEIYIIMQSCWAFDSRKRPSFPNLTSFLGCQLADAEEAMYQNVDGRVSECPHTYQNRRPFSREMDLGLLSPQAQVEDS
- ASSAY DETAILS: Inhibition of human FLT3 using EAIYAAPFAKKK as substrate incubated for 60 mins by fluorescence based assay
READOUT NAME: IC50

>>> df
                                 smiles_str                             tested_system   result
0  CN1CCOc2c1cnn1c(-c3ccc4ccc(Cl)c(NCC5(F)CCNCC5)c4n3)nnc21  Receptor-type tyrosine-protein kinase FLT3 (Homo sapiens, UniProt P36888)  > 10 µM
1  CN1CCOc2c1cnn1c(-c3ccc4c(F)c(F)cc(NCC5(F)CCNCC5)c4n3)nnc21  Receptor-type tyrosine-protein kinase FLT3 (Homo sapiens, UniProt P36888)  6.32 µM
2  CN1CCOc2c1cnn1c(-c3ccc4ccnc(NCC5(F)CCNCC5)c4c3)nnc21  Receptor-type tyrosine-protein kinase FLT3 (Homo sapiens, UniProt P36888)  > 10 µM
3  CN1CCC(Nc2cccc3ccc(-c4nnc5c6c(cnn45)N(C)CCO6)nc23)CC1  Receptor-type tyrosine-protein kinase FLT3 (Homo sapiens, UniProt P36888)  > 10 µM
4  CN1CCOc2c1cnn1c(-c3ccc4cccc(NC5CCCCC5)c4c3)nnc21  Receptor-type tyrosine-protein kinase FLT3 (Homo sapiens, UniProt P36888)  > 10 µM
5  CN1CCOc2c1cnn1c(-c3ccc4ccnc(NC5CCCCC5)c4c3)nnc21  Receptor-type tyrosine-protein kinase FLT3 (Homo sapiens, UniProt P36888)  > 10 µM
6  CN1CCOc2c1cnn1c(-c3ccc4cccc(NC5CCCCC5)c4n3)nnc21  Receptor-type tyrosine-protein kinase FLT3 (Homo sapiens, UniProt P36888)  > 10 µM
